System: HOP-92 NSCLC
Assay: NCI-60 one-dose screen, 48 h
Settings: 10 µM unless noted
Description: Growth inhibition of the HOP-92 human Non-Small Cell Lung tumor cell line is measured as a screen for anti-cancer activity. Cells are grown in 96 well plates and exposed to the test compound for 48 hours. Compounds are tested at a single concentration, which is 10^-5 M for most compounds. The reported endpoint is percent growth (GI% or GIPRCNT), where numbers from 0 - 100% represent growth inhibition, and numbers from -100% - 0 represent cell death. […]
About 83,000 compounds went through this panel and 20% of them were active in at least one assay; those are over-represented in the sample as a whole. Calls of active or inactive are those of the source. Rule for the calls: active = growth percent below 10; inactive = the rest.
Labels: active, inactive

[
  {
    "MOLECULE": "C=C1C(=O)O[C@H]2[C@H]1CC/C(COC(=O)NCc1ccc(Cn3c(=O)sn(-c4ccc(Cl)cc4)c3=O)cc1)=C\\CC[C@@]1(C)O[C@@H]21",
    "TARGET_OR_SYSTEM": "HOP-92 NSCLC",
    "LABEL_CLASS": "inactive"
  },
  {
    "MOLECULE": "Cc1cccc(/C=C2\\N=C(c3ccccc3)N(c3ccc(S(N)(=O)=O)cc3)C2=O)c1",
    "TARGET_OR_SYSTEM": "HOP-92 NSCLC",
    "LABEL_CLASS": "inactive"
  },
  {
    "MOLECULE": "Nc1cc(Cl)cc2cccnc12",
    "TARGET_OR_SYSTEM": "HOP-92 NSCLC",
    "LABEL_CLASS": "inactive"
  },
  {
    "MOLECULE": "CNC(=O)c1cc(Oc2ccc3nc(NC(=O)c4ccc5ncccc5c4)sc3c2)ccn1",
    "TARGET_OR_SYSTEM": "HOP-92 NSCLC",
    "LABEL_CLASS": "inactive"
  },
  {
    "MOLECULE": "NS(=O)(=O)c1ccc(CCN2C(=O)/C(=C\\c3ccccc3)C=C2c2ccc(Cl)cc2)cc1",
    "TARGET_OR_SYSTEM": "HOP-92 NSCLC",
    "LABEL_CLASS": "inactive"
  },
  {
    "MOLECULE": "Nc1ccc(Cl)c([N+](=O)[O-])c1",
    "TARGET_OR_SYSTEM": "HOP-92 NSCLC",
    "LABEL_CLASS": "inactive"
  },
  {
    "MOLECULE": "Cc1cccc(C[C@H](NC(=O)Nc2ccc(Cl)cc2F)C(=O)N[C@@H]2C(=O)N3C[C@H](O)C[C@H]3C(=O)N3CCN(C)C[C@H]3C(=O)N[C@@H](C)C(=O)N3C[C@H](C)C[C@H]3C(=O)O[C@H]2C)c1",
    "TARGET_OR_SYSTEM": "HOP-92 NSCLC",
    "LABEL_CLASS": "inactive"
  },
  {
    "MOLECULE": "CC1(C)CC[C@]2(C(N)=O)CC[C@]3(C)C(=CC[C@@H]4[C@@]5(C)C/C(=C/c6cccnc6)C(=O)C(C)(C)[C@@H]5CC[C@]43C)[C@@H]2C1",
    "TARGET_OR_SYSTEM": "HOP-92 NSCLC",
    "LABEL_CLASS": "active"
  },
  {
    "MOLECULE": "Cc1cc(C)c(O)c(CNCCCCCCNCc2cc(C)cc(C)c2O)c1",
    "TARGET_OR_SYSTEM": "HOP-92 NSCLC",
    "LABEL_CLASS": "inactive"
  },
  {
    "MOLECULE": "CCCCNC(=O)NS(=O)(=O)Cc1ccccc1",
    "TARGET_OR_SYSTEM": "HOP-92 NSCLC",
    "LABEL_CLASS": "inactive"
  },
  {
    "MOLECULE": "C=C(C)[C@@H]1CC[C@]2(C(N)=O)CC[C@]3(C)[C@H](CC[C@@H]4[C@@]5(C)C/C(=C/c6cccnc6)C(=O)C(C)(C)[C@@H]5CC[C@]43C)[C@@H]12",
    "TARGET_OR_SYSTEM": "HOP-92 NSCLC",
    "LABEL_CLASS": "inactive"
  },
  {
    "MOLECULE": "Cc1cc(NN=C(c2ccc(O)cc2)c2ccc(O)cc2)c([N+](=O)[O-])cc1[N+](=O)[O-]",
    "TARGET_OR_SYSTEM": "HOP-92 NSCLC",
    "LABEL_CLASS": "inactive"
  },
  {
    "MOLECULE": "O=C1COCCN1c1ccc(NCc2cn(Cc3ccccc3)c3ccccc23)cc1",
    "TARGET_OR_SYSTEM": "HOP-92 NSCLC",
    "LABEL_CLASS": "inactive"
  },
  {
    "MOLECULE": "COC(=O)[C@]12CCC(C)(C)C[C@H]1C1=CC[C@@H]3[C@@]4(C)C/C(=C/c5cccnc5)C(=O)C(C)(C)[C@@H]4CC[C@@]3(C)[C@]1(C)CC2",
    "TARGET_OR_SYSTEM": "HOP-92 NSCLC",
    "LABEL_CLASS": "active"
  },
  {
    "MOLECULE": "COC(=O)[C@@H](NC(=O)NC(=O)NC(=O)CI)C(C)C",
    "TARGET_OR_SYSTEM": "HOP-92 NSCLC",
    "LABEL_CLASS": "active"
  },
  {
    "MOLECULE": "OC(c1ccc(Cl)cc1)(c1ccc(Cl)cc1)C(O)(c1ccc(Cl)cc1)c1ccc(Cl)cc1",
    "TARGET_OR_SYSTEM": "HOP-92 NSCLC",
    "LABEL_CLASS": "inactive"
  },
  {
    "MOLECULE": "CCCC[C@@H](C=O)NC(=O)[C@H](CC(C)C)NC(=O)[C@H](CC(C)C)NC(=O)OCc1ccccc1",
    "TARGET_OR_SYSTEM": "HOP-92 NSCLC",
    "LABEL_CLASS": "active"
  },
  {
    "MOLECULE": "CC(C)OC(=O)Nc1cc(F)c(F)cc1F",
    "TARGET_OR_SYSTEM": "HOP-92 NSCLC",
    "LABEL_CLASS": "inactive"
  },
  {
    "MOLECULE": "COc1ccc2[nH]c(C(=O)N3CCN(C(=O)OCc4ccc5c(Br)cc(Br)c(O)c5n4)CC3)cc2c1",
    "TARGET_OR_SYSTEM": "HOP-92 NSCLC",
    "LABEL_CLASS": "active"
  },
  {
    "MOLECULE": "C=CCc1nc2ccccc2s1",
    "TARGET_OR_SYSTEM": "HOP-92 NSCLC",
    "LABEL_CLASS": "inactive"
  },
  {
    "MOLECULE": "CSc1nc(=S)c2nc(SC)n(-c3ccccc3)c2[nH]1",
    "TARGET_OR_SYSTEM": "HOP-92 NSCLC",
    "LABEL_CLASS": "inactive"
  },
  {
    "MOLECULE": "CN(C)CCOc1ccc(/C(=C(/CCCl)c2ccccc2)c2ccccc2)cc1",
    "TARGET_OR_SYSTEM": "HOP-92 NSCLC",
    "LABEL_CLASS": "active"
  },
  {
    "MOLECULE": "CC(C)CCNCC(C)(C)O",
    "TARGET_OR_SYSTEM": "HOP-92 NSCLC",
    "LABEL_CLASS": "inactive"
  },
  {
    "MOLECULE": "CCCCC1COc2cccc3c2N1C=C/C3=C\\C(=O)n1ccc2ccccc21 (configuration not stated)",
    "TARGET_OR_SYSTEM": "HOP-92 NSCLC",
    "LABEL_CLASS": "inactive"
  },
  {
    "MOLECULE": "COc1ccc(-c2cc(-c3ccc(Cl)cc3)nc(NCCCCNc3ccnc4cc(Cl)ccc34)n2)cc1",
    "TARGET_OR_SYSTEM": "HOP-92 NSCLC",
    "LABEL_CLASS": "inactive"
  },
  {
    "MOLECULE": "O=c1c2c3c(sc2n2cnnc2n1Cc1ccccc1)CCCC3",
    "TARGET_OR_SYSTEM": "HOP-92 NSCLC",
    "LABEL_CLASS": "inactive"
  },
  {
    "MOLECULE": "CCOc1ccc2sc(NS(=O)(=O)c3ccc(N)cc3)nc2c1",
    "TARGET_OR_SYSTEM": "HOP-92 NSCLC",
    "LABEL_CLASS": "inactive"
  },
  {
    "MOLECULE": "CN(C)CCCNc1nc(-c2cccc(C(Cl)(Cl)Cl)c2)nc(C(Cl)(Cl)Cl)n1",
    "TARGET_OR_SYSTEM": "HOP-92 NSCLC",
    "LABEL_CLASS": "inactive"
  },
  {
    "MOLECULE": "C[C@]12CCc3c(ccc4cc(O)ccc34)[C@@H]1CC[C@H]2O",
    "TARGET_OR_SYSTEM": "HOP-92 NSCLC",
    "LABEL_CLASS": "inactive"
  },
  {
    "MOLECULE": "c1nc(N2CCOCC2)c2[nH]ccc2n1",
    "TARGET_OR_SYSTEM": "HOP-92 NSCLC",
    "LABEL_CLASS": "inactive"
  },
  {
    "MOLECULE": "CC1(C)S[C@@H]2[C@H](NC(=O)[C@H](C(=O)O)c3cccs3)C(=O)N2[C@H]1C(=O)O",
    "TARGET_OR_SYSTEM": "HOP-92 NSCLC",
    "LABEL_CLASS": "inactive"
  },
  {
    "MOLECULE": "CCCCC(CC)COC(=O)C[N+](C)(C)CCOC(c1ccccc1)c1ccccc1 (configuration not stated)",
    "TARGET_OR_SYSTEM": "HOP-92 NSCLC",
    "LABEL_CLASS": "active"
  },
  {
    "MOLECULE": "C=C(C)[C@@H]1CC[C@]2(C(=O)N3CCN(C)CC3)CC[C@]3(C)[C@H](CC[C@@H]4[C@@]5(C)C/C(=C/c6ccncc6)[C@H](O)C(C)(C)[C@@H]5CC[C@]43C)[C@@H]12",
    "TARGET_OR_SYSTEM": "HOP-92 NSCLC",
    "LABEL_CLASS": "active"
  },
  {
    "MOLECULE": "COc1ccc(CC(C#N)c2ccc(Cl)cc2)cc1 (configuration not stated)",
    "TARGET_OR_SYSTEM": "HOP-92 NSCLC",
    "LABEL_CLASS": "inactive"
  },
  {
    "MOLECULE": "COc1cc(NCc2ccccc2O)c2ncccc2c1",
    "TARGET_OR_SYSTEM": "HOP-92 NSCLC",
    "LABEL_CLASS": "inactive"
  },
  {
    "MOLECULE": "C=C(C)[C@@H]1CC[C@]2(C(=O)NCCNCCNCCN)CC[C@]3(C)[C@H](CC[C@@H]4[C@@]5(C)CC[C@H](O)C(C)(C)[C@@H]5CC[C@]43C)[C@@H]12",
    "TARGET_OR_SYSTEM": "HOP-92 NSCLC",
    "LABEL_CLASS": "active"
  },
  {
    "MOLECULE": "Oc1cc(Nc2ccnc3cc(Cl)ccc23)c2ncccc2c1",
    "TARGET_OR_SYSTEM": "HOP-92 NSCLC",
    "LABEL_CLASS": "inactive"
  }
]
